pKi: −log10 of the molar value.
Collected set of pKi measured with hCRTH2 receptor (Homo sapiens (Human), UniProt Q9Y5Y4) across studies.
# cutoff 8 applies to pKi; >= gives Met, < gives Not met

Compound	Label value
Cc1ccc2[nH]c(-c3ccc(Cn4nc(C)c(CC(=O)O)c4C)cc3)nc2c1	Met
N#Cc1cn(CC(=O)O)cc1-c1cc(C(F)(F)F)cc(S(=O)(=O)N2CCCCC2)c1	Met
Cc1c(CC(=O)O)c2ccc(Cl)nc2n1Cc1ccc(S(C)(=O)=O)cc1C(F)(F)F	Met
CCc1nn(Cc2ccc(-c3nc4cc(Cl)c(Cl)cc4[nH]3)cc2)c(CC)c1CC(=O)O	Met
CN(Cc1ccc(-c2nccnc2NS(=O)(=O)c2ccccc2C(F)(F)F)cc1)c1ccccc1	Not met
Cc1nn(Cc2ccc(-c3nc4cc(F)c(Cl)cc4[nH]3)cc2)c(C)c1CC(=O)O	Met
Cc1nn(Cc2ccc(-c3nc4c(F)c(F)ccc4[nH]3)cc2F)c(C)c1CC(=O)O	Met
Cc1onc(-c2ccccc2)c1CN1C(=O)NC2(C1=O)C(=O)N(CC(=O)O)c1ccc(Cl)cc12 (stereo not drawn)	Not met
